# Test system: Human immunodeficiency virus 1
# Procedure summary: Inhibitory activity against LAI strain of HIV-I in MT-4 cell was determined
# Type: functional, organism-based
# Conditions: Human immunodeficiency virus 1, MT4
pIC50: −log10 of the molar value.
Test readout: pIC50

Data request: Can you look up the measured pIC50 of N#Cc1ccc(Nc2nc(Cl)nc(Cc3c(Cl)cccc3Cl)n2)cc1 for me?
Data returned: 5.97

a. N#Cc1ccc(Nc2nc(Cc3c(Cl)cccc3Cl)nc(N3CCOCC3)n2)cc1
b. N#Cc1ccc(Nc2nc(N)nc(Cc3ccc(Cl)cc3Cl)n2)cc1
c. N#Cc1ccc(Nc2nc(N)nc(Oc3c(Br)cc(Br)cc3Br)n2)cc1
Data request: Please put the entries in order of rising pIC50. Reply with the labels, ordered as the question asks.
Data returned: a, b, c
(a: 6.71, b: 7.85, c: 8.27)
